System: biotinyl-Leu-oxazolone
Assay: self-aminoacylation, catalytic enhancement (BLO) (fold over background); higher = more active; k-Seq, kA / k0A0; sequences stand for … in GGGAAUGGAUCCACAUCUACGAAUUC…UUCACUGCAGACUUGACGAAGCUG
This sample holds only a part of the variants without activity.
Catalogue of self-aminoacylation values
Reply briefly: the number, and no unit.

Measured on biotinyl-Leu-oxazolone, AUUAGCCAGGUCAUCGAGUGA [Fam2.1 aminoacylation ribozyme variant] has a documented self-aminoacylation of 5.48

Form field, self-aminoacylation with biotinyl-Leu-oxazolone, item CUACUUCGAACAAACGGUCUG [Fam1A.1 aminoacylation ribozyme variant] : 0.535

For AAGUUUGCUACUUGUCGCAAG [Fam3.1 aminoacylation ribozyme variant] on biotinyl-Leu-oxazolone, measured self-aminoacylation was 1.06

Record CCACACCUCAAACAAUCGGUC [Fam1B.1 aminoacylation ribozyme variant] / biotinyl-Leu-oxazolone, self-aminoacylation recorded as 1.29

Record AUUAAGCUGGUCAUCGAGUGA [Fam2.1 aminoacylation ribozyme variant] / biotinyl-Leu-oxazolone, self-aminoacylation recorded as 3.05

====

Test system: biotinyl-Met-oxazolone
Assay: self-aminoacylation, catalytic enhancement (BMO) (fold over background); higher = more active; k-Seq, kA / k0A0; sequences stand for … in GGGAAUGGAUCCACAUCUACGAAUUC…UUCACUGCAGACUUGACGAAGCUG
Variants at the floor of the assay were thinned out.
Class rule met: self-aminoacylation at least 0.9. Class rule not met: self-aminoacylation below 0.9.

Below are worked cases with known answers.
- Monomer sequence: "CUACUUCUAACCAUCGGUCUG [Fam1A.1 aminoacylation ribozyme variant]"
  Category label: "rule not met"
- Monomer sequence: "AUUACCCUGCUCACCGAGUGA [Fam2.1 aminoacylation ribozyme variant]"
  Category label: "rule met"

Problem: Is self-aminoacylation for GUUCACCUAGGUCAUCGGGUU [Fam2.2 aminoacylation ribozyme variant] at or above 0.9?
Result: rule met

Problem: Textbook exercise: given the entry CUACUUCAAACAAUCCGUCGG [Fam1A.1 aminoacylation ribozyme variant] , state whether its self-aminoacylation is greater than or equal to 0.9.
Result: rule not met

Problem: Evaluate CCUCACUUUAAGCAAUCGGUC [Fam1B.1 aminoacylation ribozyme variant] : self-aminoacylation at minimum 0.9?
Result: rule not met

Problem: Assess whether reported self-aminoacylation for AUUAUCCUGGUGAUCGAGUGA [Fam2.1 aminoacylation ribozyme variant] sits at 0.9 or higher.
Result: rule met

====

Measured self-aminoacylation by item
System: biotinyl-Trp-oxazolone
Experiment: self-aminoacylation, catalytic enhancement (BWO) (fold over background); higher = more active; k-Seq, kA / k0A0; sequences stand for … in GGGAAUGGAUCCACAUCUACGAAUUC…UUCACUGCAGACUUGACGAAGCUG
This sample holds only a part of the variants without activity.

// below: answered sequences
- Monomer sequence: "AUUACCCUGCUCACCGAGUGA [Fam2.1 aminoacylation ribozyme variant]"
  self-aminoacylation: 6.29
- Monomer sequence: "CUACUUCAAAGAAUCGGUCGG [Fam1A.1 aminoacylation ribozyme variant]"
  self-aminoacylation: 1.12
- Monomer sequence: "CUACUUCAAACAAUCCGUCUA [Fam1A.1 aminoacylation ribozyme variant]"
  self-aminoacylation: 0.596
- Monomer sequence: "AAGUUUGCUAAUAGUCGCGAG [Fam3.1 aminoacylation ribozyme variant]"
  self-aminoacylation: 2
- Monomer sequence: "AUUCACGUAGGUCAUCGGGUG [Fam2.2 aminoacylation ribozyme variant]"
  self-aminoacylation: 6.49
- Monomer sequence: "AAGUUUGCUAAUAGGCGUAAG [Fam3.1 aminoacylation ribozyme variant]"
  self-aminoacylation: 0.664
- Monomer sequence: "CCACACUCCAAGGAAUCGGUC [Fam1B.1 aminoacylation ribozyme variant]"
  self-aminoacylation: 1.34
- Monomer sequence: "AUUACCCUGGUCAUUGGGUGA [Fam2.1 aminoacylation ribozyme variant]"
  self-aminoacylation: 12.9
- Monomer sequence: "GUACUCCAAACAAUCGGUCUG [Fam1A.1 aminoacylation ribozyme variant]"
  self-aminoacylation: 1.84

# next sequence below
The sequence CUACUUCAAAAAAGCGGUCUG [Fam1A.1 aminoacylation ribozyme variant] , when measured on biotinyl-Trp-oxazolone, yielded self-aminoacylation of 0.633

====

Test system: biotinyl-Phe-oxazolone
Assay: self-aminoacylation, catalytic enhancement (BFO) (fold over background); higher = more active; k-Seq, kA / k0A0; sequences stand for … in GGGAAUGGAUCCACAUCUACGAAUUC…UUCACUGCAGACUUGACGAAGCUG
Variants at the floor of the assay were thinned out.
In this section we review reported self-aminoacylation values for a set of sequences.
Respond using a number only.

Record excerpt, results attached:
- Monomer sequence: "AUUAUCCUGGUCAUCGAGUGC [Fam2.1 aminoacylation ribozyme variant]"
  self-aminoacylation: 1.72
- Monomer sequence: "CUGCUUCAAACAAUCGGUCUU [Fam1A.1 aminoacylation ribozyme variant]"
  self-aminoacylation: 107
- Monomer sequence: "CCACACUUCAAGUUAUCGGUC [Fam1B.1 aminoacylation ribozyme variant]"
  self-aminoacylation: 0.799

response.value for AUACACCUAGGACAUCGGGUG [Fam2.2 aminoacylation ribozyme variant] (field: self-aminoacylation) = 14.1

Lab note: CUAAUUCAAACAAUCCGUCUG [Fam1A.1 aminoacylation ribozyme variant] gave self-aminoacylation of 0.937

Value of self-aminoacylation reported for the sequence UUUACCCUGGGCAUCGAGUGA [Fam2.1 aminoacylation ribozyme variant] is 10.4

Field self-aminoacylation (entry CCAUACUUCAAGCAAUCGGUC [Fam1B.1 aminoacylation ribozyme variant] ) reads 22.5

What the record says about CCAUACUUCAAGCAAUCGAUC [Fam1B.1 aminoacylation ribozyme variant] : self-aminoacylation is 1.01

In plain terms, CUGCUUCAUACAAUCGGUCUG [Fam1A.1 aminoacylation ribozyme variant] has a documented self-aminoacylation of 0.639

====

Test system: biotinyl-Phe-oxazolone
Assay: self-aminoacylation, catalytic enhancement (BFO) (fold over background); higher = more active; k-Seq, kA / k0A0; sequences stand for … in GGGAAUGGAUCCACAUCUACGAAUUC…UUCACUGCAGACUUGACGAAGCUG
Fewer inactive variants are shown than the library holds.
Below, each entry is listed alongside its reported self-aminoacylation.

Example cases with answers are listed next.
- Monomer sequence: "AAGUUUGCUAAUAGGCGUAAG [Fam3.1 aminoacylation ribozyme variant]"
  Reported metric: "self-aminoacylation"
  Measured: 0.828
- Monomer sequence: "UUUACCCUGGUCAUCGAGUGG [Fam2.1 aminoacylation ribozyme variant]"
  Reported metric: "self-aminoacylation"
  Measured: 154
- Monomer sequence: "CCACACUUCAAGCUAUCGCUC [Fam1B.1 aminoacylation ribozyme variant]"
  Reported metric: "self-aminoacylation"
  Measured: 2.03
- Monomer sequence: "AGUACCGUGGUCAUCGAGUGA [Fam2.1 aminoacylation ribozyme variant]"
  Reported metric: "self-aminoacylation"
  Measured: 24.1
- Monomer sequence: "AUUCAGCUAGGACAUCGGGUG [Fam2.2 aminoacylation ribozyme variant]"
  Reported metric: "self-aminoacylation"
  Measured: 42.1

The measured self-aminoacylation that AUAAACCUAGGUCAUCGGGUG [Fam2.2 aminoacylation ribozyme variant] showed for biotinyl-Phe-oxazolone is 20.4

====

# key: entry, value: self-aminoacylation
Tested on: biotinyl-Trp-oxazolone
Experiment: self-aminoacylation, catalytic enhancement (BWO) (fold over background); higher = more active; k-Seq, kA / k0A0; sequences stand for … in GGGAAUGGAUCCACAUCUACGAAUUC…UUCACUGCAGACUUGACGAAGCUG
Variants at the floor of the assay were thinned out.
Give the value as a plain number.

The cases that follow already have their self-aminoacylation on record.
- Monomer sequence: "CUACUUCAAACCAUCGGCCUG [Fam1A.1 aminoacylation ribozyme variant]"
  Target of assay: "biotinyl-Trp-oxazolone"
  Measured: 1.71
- Monomer sequence: "AUUACCCUGGUAAUCGUGUGA [Fam2.1 aminoacylation ribozyme variant]"
  Target of assay: "biotinyl-Trp-oxazolone"
  Measured: 4.1
- Monomer sequence: "CCACAAUUCAAGCAAUCGGUC [Fam1B.1 aminoacylation ribozyme variant]"
  Target of assay: "biotinyl-Trp-oxazolone"
  Measured: 1.69
- Monomer sequence: "CUACUACAAACAAUCGGUCUC [Fam1A.1 aminoacylation ribozyme variant]"
  Target of assay: "biotinyl-Trp-oxazolone"
  Measured: 0.673

The sequence AUUACCCAGGUCAUCGACUGA [Fam2.1 aminoacylation ribozyme variant] , tested on biotinyl-Trp-oxazolone, showed self-aminoacylation of 0.9

Short answer on biotinyl-Trp-oxazolone for AUUCGCCUUGGUCAUCGGGUG [Fam2.2 aminoacylation ribozyme variant] , self-aminoacylation: 8.13

====

Below, each entry is listed alongside its reported self-aminoacylation.
Tested on: biotinyl-Trp-oxazolone
Test: self-aminoacylation, catalytic enhancement (BWO) (fold over background); higher = more active; k-Seq, kA / k0A0; sequences stand for … in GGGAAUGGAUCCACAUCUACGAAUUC…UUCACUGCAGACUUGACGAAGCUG
Fewer inactive variants are shown than the library holds.

Use these answered entries as a reference point.
- Monomer sequence: "AUUCCCCUAGGUCGUCGGGUG [Fam2.2 aminoacylation ribozyme variant]"
  Reported metric: "self-aminoacylation"
  Measured: 7.42
- Monomer sequence: "AAGUUUGCUACUAGUCGGAAG [Fam3.1 aminoacylation ribozyme variant]"
  Reported metric: "self-aminoacylation"
  Measured: 0.866
- Monomer sequence: "AUUACCAUGGUCAGCGAGUGA [Fam2.1 aminoacylation ribozyme variant]"
  Reported metric: "self-aminoacylation"
  Measured: 6.31
- Monomer sequence: "CUACUCCAUACAAUCGGUCUG [Fam1A.1 aminoacylation ribozyme variant]"
  Reported metric: "self-aminoacylation"
  Measured: 0.549

Kindly note the recorded self-aminoacylation for AUUUCCCUGGUCAUCGGGUGA [Fam2.1 aminoacylation ribozyme variant] , which is 23.9

Sure, the documented self-aminoacylation for AUUUCCCUGGUCAUCCAGUGA [Fam2.1 aminoacylation ribozyme variant] is 9.93

Just so you know, measured self-aminoacylation for ACUCACCUAGGUCCUCGGGUG [Fam2.2 aminoacylation ribozyme variant] came out at 8.03

src = the supplement of paper PMC9233669
